Tested on: Staphylococcus aureus
Test: in vitro antibacterial activity (MIC), S. aureus
Type: cell-based
Settings: Strain A, Nutrient Broth
MEASURED_QUANTITY: MIC (µg/mL)

Clc1ccc(CSCSC(Cn2ccnc2)c2ccc(Cl)cc2)cc1.O=C(O)/C=C/C(=O)O (stereo not shown) [Compound 3f]: 1
Clc1ccc(C(Cn2ccnc2)SCSCc2ccsc2Cl)c(Cl)c1.O=C(O)C(=O)O (stereo not shown) [Compound 3h]: 0.5

1: Cc1ccc(CSCSC(Cn2ccnc2)c2ccc(Cl)cc2Cl)cc1.O=C(O)/C=C/C(=O)O (stereo not shown) [Compound 3c]
2: Clc1ccc(C(Cn2ccnc2)SCSCc2ccc(Cl)cc2Cl)cc1.O=C(O)/C=C/C(=O)O (stereo not shown) [Compound 3g]
Input line: Please choose the item with the lower MIC value from this pair: 1 and 2 Respond with the label that goes with your answer.
Output line: 1
